Hello, the source for this data is patent US12084420B2, in case you need it.

Biological target: KIF18a-Microtubule Complex (Homo sapiens (Human))
Assay: Binding kinetics to KIF18a-microtubule complex (global progress curve analysis)
Details: global progress curve analysis
MEASUREMENT_NAME: kon (on-rate from binding kinetics assay) (M⁻¹ s⁻¹)

compound="CS(=O)(=O)Nc1ccc2c(c1)C1(CCC3(CC3)CC1)CN2C(=O)c1cccc(S(=O)(=O)N2CC[C@@H](F)C2)c1 [(R)-Compound 239]" obs_value=16700
compound="CS(=O)(=O)Nc1ccc2c(c1)C1(CCC3(CC3)CC1)CN2C(=O)c1cccc(C(O)C2CCCC2)c1 (single isomer, unassigned) [Compound 165b]" obs_value=11900
compound="CCS(=O)(=O)Nc1ccc2c(c1)C1(CCC3(CC3)CC1)CN2C(=O)c1cc(S(=O)(=O)NC(C)(C)C)cs1 [Compound 269]" obs_value=5560
compound="CCS(=O)(=O)Nc1ccc2c(c1)[C@]1(CC[C@@H](C(F)F)CC1)CN2C(=O)c1cccc(S(=O)(=O)NC(C)(C)C)c1 [Compound 333a]" obs_value=7780
compound="CC(C)(C)NS(=O)(=O)c1cccc(C(=O)N2C[C@]3(CC[C@H](C)CC3)c3cc(NS(C)(=O)=O)ccc32)c1 [Compound 140a]" obs_value=13100
compound="O=C(c1cccc(S(=O)(=O)C2CCCC2)c1)N1CC2(CCC3(CC3)CC2)c2cc(NS(=O)(=O)CCO)ccc21 [Compound 229]" obs_value=16900
compound="CS(=O)(=O)Nc1ccc2c(c1)C1(CCCCC1)CN2C(=O)c1cccc(S(=O)(=O)C2CCCCC2)c1 [Compound 70]" obs_value=10000
compound="CS(=O)(=O)Nc1ccc2c(c1)C1(CCC3(CC3)CC1)CN2C(=O)c1cccc(S(=O)(=O)N2CC3(CCC3)C2)c1 [Compound 151]" obs_value=26700
compound="CC(C)(C)NS(=O)(=O)c1cccc(C(=O)N2CC3(CCC4(CC4)CC3)c3cc(NS(C)(=O)=O)ccc32)c1 [Compound 22]" obs_value=10600
compound="CC(C)(C)NS(=O)(=O)c1cccc(C(=O)N2C[C@]3(CC[C@H](C(F)F)CC3)c3cc(NS(C)(=O)=O)ccc32)c1 [Compound 162a]" obs_value=8060
compound="CS(=O)(=O)Nc1ccc2c(c1)C1(CCC3(CC3)CC1)CN2C(=O)c1cccc([C@H](O)C2CC(F)(F)C2)c1 (single isomer, unassigned) [Compound 351a]" obs_value=19400
compound="CCS(=O)(=O)Nc1ccc2c(c1)C1(CCC3(CC3)CC1)CN2C(=O)c1cccc(S(=O)(=O)N2CC3(CCO3)C2)c1 [Compound 320]" obs_value=7500
compound="CS(=O)(=O)Nc1ccc2c(c1)C1(CCCCC1)CN2C(=O)c1cccc(S(=O)(=O)N2CCC(F)(F)CC2)c1 [Compound 19]" obs_value=14200
compound="CS(=O)(=O)Nc1ccc2c(c1)C1(CCC3(CC3)CC1)CN2C(=O)c1cccc(S(=O)(=O)N2CC(F)(F)C2)c1 [Compound 257]" obs_value=18300
compound="CS(=O)(=O)Nc1ccc2c(c1)C1(CCC3(CC3)CC1)CN2C(=O)c1cccc(S(=O)(=O)NC23CC(C2)C3)c1 [Compound 223]" obs_value=6390
compound="CCS(=O)(=O)Nc1ccc2c(c1)C1(CCC3(CC3)CC1)CN2C(=O)c1cccc(S(=O)(=O)NC(C)(C)C)c1 [Compound 134]" obs_value=15000
compound="CC(C)(C)NS(=O)(=O)c1cccc(C(=O)N2CC3(CCC4(CC4)CC3)c3cc(NS(=O)(=O)CCO)ccc32)c1 [Compound 148]" obs_value=13600
compound="COc1ccc(C(=O)N2CC3(CCC4(CC4)CC3)c3cc(NS(C)(=O)=O)ccc32)cc1S(=O)(=O)NC(C)(C)C [Compound 297]" obs_value=10300
compound="CC(C)(C)NS(=O)(=O)c1cccc(C(=O)N2CC3(CCC4(CC4)CC3)c3cc(NS(=O)(=O)C4CC4)ccc32)c1 [Compound 160]" obs_value=10600
compound="CS(=O)(=O)Nc1ccc2c(c1)C1(CCC3(CC3)CC1)CN2C(=O)c1cccc([C@@H](O)CC2CCC2)c1 (single isomer, unassigned) [Compound 305a]" obs_value=97200
compound="CCS(=O)(=O)Nc1ccc2c(c1)[C@]1(CC[C@H](C(F)F)CC1)CN2C(=O)c1cccc(S(=O)(=O)NC(C)(C)C)c1 [Compound 333b]" obs_value=3890
compound="CS(=O)(=O)Nc1ccc2c(c1)C1(CCC3(CC3)CC1)CN2C(=O)c1cccc(S(=O)(=O)NC2CC(F)(F)C2)c1 [Compound 192]" obs_value=14400
compound="CS(=O)(=O)Nc1ccc2c(c1)C1(CCC3(CC3)CC1)CN2C(=O)c1cccc(C(O)C2CCCC2)c1 (single isomer, unassigned) [Compound 165a]" obs_value=11900
compound="CC1(NS(=O)(=O)c2cccc(C(=O)N3CC4(CCC5(CC5)CC4)c4cc(NS(C)(=O)=O)ccc43)c2)CCC1 [Compound 182]" obs_value=30600
compound="CS(=O)(=O)Nc1ccc2c(c1)C1(CCC3(CC3)CC1)CN2C(=O)c1cccc([C@H](O)CC2CCC2)c1 (single isomer, unassigned) [Compound 305b]" obs_value=106000

###

Molecular target: hKIF18A (1-374) (Homo sapiens (Human))
Experiment: Inhibition of KIF18A microtubule-dependent ATPase activity (ADP-Glo)
Conditions: KIF18A microtubule-dependent ATPase activity, biochemical assay
MEASUREMENT_NAME: IC50 (µM)

compound=CS(=O)(=O)Nc1ccc2c(c1)C1(CCC3(CC3)CC1)CN2C(=O)c1cccc(CN2CCC(F)(F)CC2)c1 measurement_name=IC50 obs_value=0.02
compound="CCS(=O)(=O)Nc1ccc2c(c1)C1(CCC3(CC3)CC1)CN2C(=O)c1ccc(C(O)C2CCCC2)o1 (single isomer, unassigned) [Compound 367b]" measurement_name=IC50 obs_value=0.0048
compound="CC1CCC(NS(=O)(=O)c2cccc(C(=O)N3CC4(CCC5(CC5)CC4)c4cc(NS(C)(=O)=O)ccc43)c2)C1 (stereo not drawn)" measurement_name=IC50 obs_value=0.011

###

Known pIC50 of a selection of compounds
Biological target: hKIF18A (1-374) (Homo sapiens (Human), UniProt Q8NI77)
Sequence (Q8NI77 whole entry, looked up): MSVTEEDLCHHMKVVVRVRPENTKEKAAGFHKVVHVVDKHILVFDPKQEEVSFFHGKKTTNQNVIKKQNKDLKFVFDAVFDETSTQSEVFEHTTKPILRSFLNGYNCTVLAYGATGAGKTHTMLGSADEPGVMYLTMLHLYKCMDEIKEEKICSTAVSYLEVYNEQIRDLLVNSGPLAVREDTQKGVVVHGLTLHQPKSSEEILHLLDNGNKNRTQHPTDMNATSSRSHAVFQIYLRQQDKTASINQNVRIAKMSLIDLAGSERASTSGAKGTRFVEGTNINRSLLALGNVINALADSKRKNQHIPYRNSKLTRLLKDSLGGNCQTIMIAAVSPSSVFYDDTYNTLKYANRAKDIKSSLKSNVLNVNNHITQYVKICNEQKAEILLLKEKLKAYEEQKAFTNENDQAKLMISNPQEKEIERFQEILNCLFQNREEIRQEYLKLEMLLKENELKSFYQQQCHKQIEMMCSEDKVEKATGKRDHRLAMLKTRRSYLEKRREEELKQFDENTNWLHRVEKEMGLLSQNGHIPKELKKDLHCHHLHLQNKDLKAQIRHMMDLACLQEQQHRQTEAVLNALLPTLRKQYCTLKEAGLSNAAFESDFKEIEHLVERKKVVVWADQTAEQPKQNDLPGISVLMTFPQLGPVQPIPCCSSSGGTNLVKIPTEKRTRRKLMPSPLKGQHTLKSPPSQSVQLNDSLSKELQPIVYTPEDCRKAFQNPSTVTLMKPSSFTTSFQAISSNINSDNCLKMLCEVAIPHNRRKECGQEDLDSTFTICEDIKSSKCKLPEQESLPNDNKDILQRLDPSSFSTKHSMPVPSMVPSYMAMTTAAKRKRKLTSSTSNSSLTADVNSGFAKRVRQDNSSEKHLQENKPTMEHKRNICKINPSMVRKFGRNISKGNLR
Sequence (Q2XVP4 whole entry partner, looked up): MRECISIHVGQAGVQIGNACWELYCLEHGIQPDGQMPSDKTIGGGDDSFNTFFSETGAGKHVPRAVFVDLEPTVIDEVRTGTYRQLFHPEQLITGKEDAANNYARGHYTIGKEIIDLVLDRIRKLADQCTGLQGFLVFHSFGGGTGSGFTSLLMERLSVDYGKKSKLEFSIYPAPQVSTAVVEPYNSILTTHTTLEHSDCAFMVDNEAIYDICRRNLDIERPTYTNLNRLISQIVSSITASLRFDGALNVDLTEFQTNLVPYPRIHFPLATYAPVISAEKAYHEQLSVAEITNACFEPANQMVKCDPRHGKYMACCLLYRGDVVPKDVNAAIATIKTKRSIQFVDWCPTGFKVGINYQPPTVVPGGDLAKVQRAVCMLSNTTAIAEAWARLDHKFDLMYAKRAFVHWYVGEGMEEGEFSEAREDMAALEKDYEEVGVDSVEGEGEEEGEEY
Sequence (P02554 whole entry partner, looked up): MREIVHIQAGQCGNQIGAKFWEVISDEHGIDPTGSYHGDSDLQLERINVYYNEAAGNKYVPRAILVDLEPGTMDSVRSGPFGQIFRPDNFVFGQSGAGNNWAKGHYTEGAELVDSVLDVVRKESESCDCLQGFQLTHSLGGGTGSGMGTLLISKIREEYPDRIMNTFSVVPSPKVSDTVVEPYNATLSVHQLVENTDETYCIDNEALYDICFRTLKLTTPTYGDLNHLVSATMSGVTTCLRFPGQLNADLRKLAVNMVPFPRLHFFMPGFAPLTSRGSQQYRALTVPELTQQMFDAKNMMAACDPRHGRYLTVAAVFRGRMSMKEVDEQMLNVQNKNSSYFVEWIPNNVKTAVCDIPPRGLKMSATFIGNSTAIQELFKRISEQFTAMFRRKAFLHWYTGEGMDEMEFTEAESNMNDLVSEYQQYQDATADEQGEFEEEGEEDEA
Test: Inhibition of KIF18A microtubule-dependent ATPase activity (ADP-Glo)
Conditions: KIF18A microtubule-dependent ATPase activity, biochemical assay
pIC50: −log10 of the molar value.
MEASUREMENT_NAME: pIC50

compound="CC(C)N(C)S(=O)(=O)c1cccc(C(=O)N2CC3(CCCCC3)c3cc(NS(C)(=O)=O)ccc32)c1 [Compound 55]" measurement_name=pIC50 obs_value=6.85
compound="CC1CCN(S(=O)(=O)c2cccc(C(=O)N3CC4(CCCCC4)c4cc(NS(C)(=O)=O)ccc43)c2)C1 (stereo not shown) [Compound 71]" measurement_name=pIC50 obs_value=7.07
compound="CCS(=O)(=O)Nc1ccc2c(c1)C1(CCC3(CC3)CC1)CN2C(=O)c1csc(S(=O)(=O)NC(C)(C)C)c1 [Compound 275]" measurement_name=pIC50 obs_value=8.10
compound="CS(=O)(=O)Nc1ccc2c(c1)C1(CCC3(CC3)CC1)CN2C(=O)c1cccc(C(F)(F)C2CCCC2)c1 [Compound 306]" measurement_name=pIC50 obs_value=7.48
compound="CC(C)(C)NS(=O)(=O)c1cccc(C(=O)N2CC3(CCC4(CC4)CC3)c3cc(C(O)C(F)(F)F)ccc32)c1 (stereo not shown) [Compound 338]" measurement_name=pIC50 obs_value=7.31
compound="CC(C)(C)NS(=O)(=O)c1cccc(C(=O)N2CC3(CC=CC3)c3cc(NS(C)(=O)=O)ccc32)c1 [Compound 243]" measurement_name=pIC50 obs_value=6.85
compound="CS(=O)(=O)Nc1ccc2c(c1)C1(CCCCC1)CN2C(=O)c1cccc(S(=O)(=O)N2CCC(F)(F)CC2)c1 [Compound 19]" measurement_name=pIC50 obs_value=7.49

###

Target: KIF18a-Microtubule Complex (Homo sapiens (Human), UniProt Q8NI77)
Experiment: Binding kinetics to KIF18a-microtubule complex (global progress curve analysis)
Settings: global progress curve analysis
MEASUREMENT_NAME: kon (on-rate from binding kinetics assay)

compound="CC(C)(C)NS(=O)(=O)c1cccc(C(=O)N2CC3(CCC(F)(F)CC3)c3cc(NS(C)(=O)=O)ccc32)c1 [Compound 144]" tgt="KIF18a-Microtubule Complex (Homo sapiens (Human), UniProt Q8NI77)" obs_value="0.015 nM⁻¹ h⁻¹"
compound="CS(=O)(=O)Nc1ccc2c(c1)C1(CCC3(CC3)CC1)CN2C(=O)c1cccc([C@H](O)C2CCCC2)n1 (single isomer, unassigned) [Compound 317b]" tgt="KIF18a-Microtubule Complex (Homo sapiens (Human), UniProt Q8NI77)" obs_value="0.059 nM⁻¹ h⁻¹"
compound="CS(=O)(=O)Nc1ccc2c(c1)C1(CCC3(CC3)CC1)CN2C(=O)c1cccc(S(=O)(=O)C2CCCC2)c1 [Compound 155]" tgt="KIF18a-Microtubule Complex (Homo sapiens (Human), UniProt Q8NI77)" obs_value="0.11 nM⁻¹ h⁻¹"
compound="CS(=O)(=O)Nc1ccc2c(c1)C1(CCC3(CC3)CC1)CN2C(=O)c1cccc(S(=O)(=O)C2CC(F)(F)C2)c1 [Compound 322]" tgt="KIF18a-Microtubule Complex (Homo sapiens (Human), UniProt Q8NI77)" obs_value="0.037 nM⁻¹ h⁻¹"
compound="CC(C)(C)NS(=O)(=O)c1cc(C(=O)N2CC3(CCC4(CC4)CC3)c3cc(NS(C)(=O)=O)ccc32)ccc1O [Compound 298]" tgt="KIF18a-Microtubule Complex (Homo sapiens (Human), UniProt Q8NI77)" obs_value="0.071 nM⁻¹ h⁻¹"
